For each of the compounds below, state its melting point.

Q) # lookup: melting point of OCc1cccc2nc(-c3ccccc3)sc12
A) 101 to 102 °C

Q) # lookup: melting point of CC(=O)NC[C@H]1CN(c2ccc(C3CCN(C(=O)c4ccno4)CC3)c(F)c2)C(=O)O1
A) 290 to 292 °C

Q) # lookup: melting point of CN1Cc2c(C#CC3(O)CCCC3)ncn2-c2cccc(Cl)c2C1=O
A) 207 to 208 °C

Q) # lookup: melting point of COc1ccc(S(=O)(=O)C2(C(=O)O)CCN(CCc3ccccc3)CC2)cc1
A) 208 °C

Q) # lookup: melting point of CC(CCN1CCN(c2ccc(F)cc2)CC1)N1c2cccc3cccc(c23)S1(=O)=O (centres undefined)
A) 116 °C

Q) # lookup: melting point of CCOc1ccc2[nH]c(=O)n(C3CCCCCC3)c2c1
A) 204 °C

Q) # lookup: melting point of CCOC(=O)c1cn(CC)c2nc(N3CCNCC3)c(F)cc2c1=O
A) 150 to 151 °C

Q) # lookup: melting point of CCOC(=O)c1nc(SC)nc(OC)c1OCc1ccccc1
A) 48 to 49 °C

Q) # lookup: melting point of Cn1nc(NC2c3cc(C#N)ccc3OC(C)(C)C2O)ccc1=O (centres undefined)
A) 117 to 119 °C

Q) # lookup: melting point of CC(C)=CCOc1ccc(C(=O)C=Cc2cccc([N+](=O)[O-])c2)c(O)c1
A) 125 to 126 °C

Q) # lookup: melting point of CC1=Cc2c(cccc2-c2cccc3ccccc23)C1
A) 143 °C

Q) # lookup: melting point of O=C1CC(c2cccc(-n3ccnc3)c2)=Nc2ccc(-c3ccccc3F)cc2N1
A) 179 to 182 °C

Q) # lookup: melting point of COC(=O)C1=C(C(OC)OC)NC(C)=C(C(=O)OCC(C)(C)C)C1c1ccccc1C#N (centres undefined)
A) 130 to 131 °C

Q) # lookup: melting point of Cc1ccnc(C(=O)c2[nH]c3cc(Cl)ccc3c2NC(=O)CCl)c1
A) 224 to 225 °C

Q) # lookup: melting point of Cc1ccc2c(c1)C(CC(=O)NO)N(c1ccccc1)S2(=O)=O (centres undefined)
A) 150 to 155 °C

Q) # lookup: melting point of CC(C)(C)OC(=O)COCCCCCCn1nc(-c2ccccc2)c(-c2ccccc2)c1-c1ccccc1
A) 69 to 72 °C

Q) # lookup: melting point of COc1ccc(C(=O)NCC(O)CCl)cc1OC (centres undefined)
A) 104 to 106 °C

Q) # lookup: melting point of COc1cc(Nc2c(C#N)cnc3cc(-c4cccc(C=O)c4)sc23)c(Cl)cc1Cl
A) 262 to 263 °C

Q) # lookup: melting point of CNc1nc(C)c(-c2ccnc(Nc3cccc(CNC(C)=O)c3)n2)s1
A) 253 to 255 °C
